experiment: Half life in rat at 3 mg/kg, iv
Assay type: ADME, organism-based
Parameters: dose 3 mg/kg, route intravenous
conditions: in vivo
observation-type: half-life (h)

Any idea what half-life was measured for COC(=O)N[C@H](C(=O)N1CCC[C@H]1C(=O)Nc1ccc([C@@H]2CC[C@@H](c3ccc(NC(=O)[C@@H]4CCCN4C(=O)[C@@H](NC(=O)OC)C(C)C)cc3)N2c2ccc(F)cc2)cc1)C(C)C ?
2.6

A: COC(=O)N[C@H](C(=O)N1CCC[C@H]1C(=O)Nc1ccc([C@@H]2CC[C@@H](c3ccc(NC(=O)[C@@H]4CCCN4C(=O)[C@@H](NC(=O)OC)[C@H]4CCOC4)cc3)N2c2ccc(F)cc2)cc1)[C@H]1CCOC1
B: COC(=O)N[C@H](C(=O)N1CCC[C@H]1C(=O)Nc1ccc([C@H]2CC[C@H](c3ccc(NC(=O)[C@@H]4CCCN4C(=O)[C@@H](NC(=O)OC)C(C)(C)C)cc3)N2c2ccc(F)cc2)cc1)C(C)(C)C
C: COC(=O)N[C@H](C(=O)N1CCC[C@H]1C(=O)Nc1ccc([C@H]2CC[C@H](c3ccc(NC(=O)[C@@H]4CCCN4C(=O)[C@@H](NC(=O)OC)[C@@H](C)OC)cc3)N2c2ccc(F)cc2)cc1)[C@@H](C)OC
D: COC(=O)N[C@H](C(=O)N1CCC[C@H]1C(=O)Nc1ccc([C@H]2CC[C@H](c3ccc(NC(=O)[C@@H]4CCCN4C(=O)[C@@H](NC(=O)OC)C(C)C)cc3)N2c2ccc(C(F)(F)F)cc2)cc1)C(C)C
E: COC(=O)N[C@H](C(=O)N1CCC[C@H]1C(=O)Nc1ccc([C@@H]2CC[C@@H](c3ccc(NC(=O)[C@@H]4CCCN4C(=O)[C@@H](NC(=O)OC)[C@@H](C)OC)cc3)N2c2ccc(F)cc2)cc1)[C@@H](C)OC
Put the compounds in ascending order of half-life. In plain terms: list the labels in the order you were asked to.
C, E, A, D, B

a: COC(=O)N[C@H](C(=O)N1CCC[C@H]1C(=O)Nc1ccc([C@H]2CC[C@H](c3ccc(NC(=O)[C@@H]4CCCN4C(=O)[C@@H](NC(=O)OC)[C@H]4CCOC4)cc3)N2c2ccc(F)cc2)cc1)[C@H]1CCOC1
b: COC(=O)N[C@H](C(=O)N1CCC[C@H]1C(=O)Nc1ccc([C@H]2CC[C@H](c3ccc(NC(=O)[C@@H]4CCCN4C(=O)[C@@H](NC(=O)OC)C(C)C)cc3)N2c2ccc(F)cc2)cc1)C(C)C
c: COC(=O)N[C@H](C(=O)N1CCC[C@H]1C(=O)Nc1ccc([C@@H]2CC[C@@H](c3ccc(NC(=O)[C@@H]4CCCN4C(=O)[C@@H](NC(=O)OC)C(C)C)cc3)N2c2ccc(C(F)(F)F)cc2)cc1)C(C)C
d: COC(=O)N[C@H](C(=O)N1CCC[C@H]1C(=O)Nc1ccc([C@H]2CC[C@H](c3ccc(NC(=O)[C@@H]4CCCN4C(=O)[C@@H](NC(=O)OC)C(C)(C)C)cc3)N2c2ccc(C(C)(C)C)cc2)cc1)C(C)(C)C
Rank the items in ascending order with respect to half-life. Return value: ordered labels per request.
a, b, c, d
(a: 0.8 h, b: 3.3 h, c: 6 h, d: 10.2 h)
